System: TK-10
procedureDetails: NCI tumour cell line growth inhibition, 48 h
Calls of active or inactive are those of the source. No stated cut-off is given here; in the data, active = GI50 up to about 1.1 µM and inactive = higher.
measurementLabel: GI50

Worked cases, GI50 given:
{"molecule": "Oc1ccc2c(c1)-c1c(c3cc(O)ccc3n1CCN1CCOCC1)CC2", "measurementLabel": "GI50", "measured": "41.1 µM (inactive)"}
{"molecule": "S=C=NCc1ccccc1 [BENZYL ISOTHIOCYANATE]", "measurementLabel": "GI50", "measured": "4.37 µM (inactive)"}

Now for a further molecule.
Inquiry: Report GI50, nothing else, for this molecule: CN1CCCCC1CCN1CCCCC1 (stereo not drawn)
Reply text: > 100 µM (inactive)

====

System: HL-60
procedureDetails: NCI tumour cell line growth inhibition, 48 h
The source made the active and inactive calls. No stated cut-off is given here; in the data, active = GI50 up to about 1.1 µM and inactive = higher.
In this exercise, the only acceptable responses are Y = active, N = inactive

Here are 3 compounds together with their reported answers.
{"compound": "Cc1cc(Nc2ccc(/N=N/c3ccc(O)c4ncccc34)cc2)nc(C)n1", "targetOrSystem": "HL-60", "category": "N"}
{"compound": "O=C(CCC(=O)Nc1cccc(C(F)(F)F)c1)CC(=O)c1ccc2ccccc2c1", "targetOrSystem": "HL-60", "category": "N"}
{"compound": "CC(=O)CC(O)(C(F)(F)Cl)C(F)(Cl)Cl (stereo not drawn)", "targetOrSystem": "HL-60", "category": "N"}

Inquiry: In this assay, the call recorded for COC1(OC)N=C(N)C2(C#N)C(C)=C3NCN(C)N=C3C12C#N (stereo not drawn) was what?
Reply text: N

Inquiry: In this assay, the call recorded for CN1NC(c2ccccc2)=C(C#N)C(=O)CC1c1ccc(F)cc1 (stereo not drawn) was what?
Reply text: N

Inquiry: In this assay, the call recorded for COC(=O)c1nsc(OC)c1Cl was what?
Reply text: N

Inquiry: In this assay, the call recorded for NS(=O)(=O)c1ccc(/N=N/c2ncccc2O)cc1 was what?
Reply text: N

====

Tested on: NCI-H460
procedureDetails: NCI tumour cell line growth inhibition, 48 h
The source made the active and inactive calls. Rule as the data show it: active = GI50 up to about 1.1 µM and inactive = higher.
In this exercise, the only acceptable responses are TRUE (active), FALSE (inactive)

Here are 8 molecules together with their reported answers.
{"molecule": "CC(=O)OC1COC(n2c(=S)n(-c3ccc(C)cc3)c(=O)c3ccccc32)C(OC(C)=O)C1OC(C)=O (centres undefined)", "category": "FALSE"}
{"molecule": "NS(=O)(=O)c1ccc(/N=N/c2ncccc2O)cc1", "category": "FALSE"}
{"molecule": "CCC1OC2C(CC=C(C)C)=C3OC(C)(O)C(C)(CC)C(=O)C3=C3OC(=O)C=C1C32 (centres undefined)", "category": "FALSE"}
{"molecule": "Cn1c(-c2ccccc2)cc2c3ccsc3c3ccsc3c21", "category": "FALSE"}
{"molecule": "O=C1N[C@@H](c2c[nH]c3ccc(Br)cc23)C(=O)N[C@H]1c1c[nH]c2ccc(Br)cc12", "category": "FALSE"}
{"molecule": "Cn1nnc2c(C(N)=O)ncn2c1=O [TEMOZOLOMIDE]", "category": "FALSE"}
{"molecule": "CCN(CC)CCCNc1ccc2ncn3c4ccc(O)cc4c(=O)c1c23", "category": "TRUE"}
{"molecule": "Cc1ccc(C)c(NC(=O)C(=O)CC(=O)c2cccc3ccccc23)c1", "category": "FALSE"}

Inquiry: In this assay, the call recorded for O=C(N/C(=C\c1ccc(F)cc1)c1nc2ccccc2[nH]1)c1ccccc1 was what?
Reply text: FALSE

Inquiry: In this assay, the call recorded for CC1ON2CCCC2[C@H]1C(=O)N1C2CC3CCC2(CS1(=O)=O)C3(C)C (some centres undefined) was what?
Reply text: FALSE
